System: Pseudomonas aeruginosa
Assay: Aerobic antibacterial MIC, standard dilution technique
Type: cell-based
Conditions: clinical isolate, value in parentheses, read-out: Minimum inhibitory concentration (MIC) Pseudomonas aeruginosa
Labelling: MIC reported below 0.5 µM becomes t; at or above becomes f.

Answered cases to consult:
smiles.string: CC[C@H](C)[C@H](NC(=O)c1cnccn1)C(=O)NNC(=O)c1ccncc1
assigned.category: t

smiles.string: O=C(NNC(=O)[C@H](Cc1ccccc1)NC(=O)c1cnccn1)c1ccncc1
assigned.category: t

smiles.string: CC(C)[C@H](NC(=O)c1cnccn1)C(=O)O
assigned.category: f

In: API: query returns whether the molecule falls strictly under 0.5 µM in MIC. Query: NC(=O)c1cnccn1
Out: f
